B1: TPR 5TU (parent)
chain: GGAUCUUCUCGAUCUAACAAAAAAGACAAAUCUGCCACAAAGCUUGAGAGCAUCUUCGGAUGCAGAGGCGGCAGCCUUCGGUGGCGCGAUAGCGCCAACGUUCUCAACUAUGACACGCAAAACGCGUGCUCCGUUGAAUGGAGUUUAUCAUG

- Variants of: B1
- TEST: polymerase ribozyme fitness, log enrichment relative to wild type (log ratio); higher = more active; in vitro selection for triplet polymerase activity
This sample holds only a part of the variants without activity.
Please provide measured polymerase ribozyme fitness (log ratio) for the entries that follow.

Query block: Entry U4G C27G A40U C116G A137C has what polymerase ribozyme fitness (log ratio)?
Result block: ≤ -4.2

Query block: Entry C5U A23G C32A C57G G59A C87G C95A U134C has what polymerase ribozyme fitness (log ratio)?
Result block: ≤ -4.2

Query block: Entry C32G A49C A52C G143U has what polymerase ribozyme fitness (log ratio)?
Result block: ≤ -4.2
